Target: Glutamate NMDA receptor; Grin1/Grin2a (Rattus norvegicus, UniProt P35439+Q00959)
Sequence (Q00959 whole entry, other chains not shown): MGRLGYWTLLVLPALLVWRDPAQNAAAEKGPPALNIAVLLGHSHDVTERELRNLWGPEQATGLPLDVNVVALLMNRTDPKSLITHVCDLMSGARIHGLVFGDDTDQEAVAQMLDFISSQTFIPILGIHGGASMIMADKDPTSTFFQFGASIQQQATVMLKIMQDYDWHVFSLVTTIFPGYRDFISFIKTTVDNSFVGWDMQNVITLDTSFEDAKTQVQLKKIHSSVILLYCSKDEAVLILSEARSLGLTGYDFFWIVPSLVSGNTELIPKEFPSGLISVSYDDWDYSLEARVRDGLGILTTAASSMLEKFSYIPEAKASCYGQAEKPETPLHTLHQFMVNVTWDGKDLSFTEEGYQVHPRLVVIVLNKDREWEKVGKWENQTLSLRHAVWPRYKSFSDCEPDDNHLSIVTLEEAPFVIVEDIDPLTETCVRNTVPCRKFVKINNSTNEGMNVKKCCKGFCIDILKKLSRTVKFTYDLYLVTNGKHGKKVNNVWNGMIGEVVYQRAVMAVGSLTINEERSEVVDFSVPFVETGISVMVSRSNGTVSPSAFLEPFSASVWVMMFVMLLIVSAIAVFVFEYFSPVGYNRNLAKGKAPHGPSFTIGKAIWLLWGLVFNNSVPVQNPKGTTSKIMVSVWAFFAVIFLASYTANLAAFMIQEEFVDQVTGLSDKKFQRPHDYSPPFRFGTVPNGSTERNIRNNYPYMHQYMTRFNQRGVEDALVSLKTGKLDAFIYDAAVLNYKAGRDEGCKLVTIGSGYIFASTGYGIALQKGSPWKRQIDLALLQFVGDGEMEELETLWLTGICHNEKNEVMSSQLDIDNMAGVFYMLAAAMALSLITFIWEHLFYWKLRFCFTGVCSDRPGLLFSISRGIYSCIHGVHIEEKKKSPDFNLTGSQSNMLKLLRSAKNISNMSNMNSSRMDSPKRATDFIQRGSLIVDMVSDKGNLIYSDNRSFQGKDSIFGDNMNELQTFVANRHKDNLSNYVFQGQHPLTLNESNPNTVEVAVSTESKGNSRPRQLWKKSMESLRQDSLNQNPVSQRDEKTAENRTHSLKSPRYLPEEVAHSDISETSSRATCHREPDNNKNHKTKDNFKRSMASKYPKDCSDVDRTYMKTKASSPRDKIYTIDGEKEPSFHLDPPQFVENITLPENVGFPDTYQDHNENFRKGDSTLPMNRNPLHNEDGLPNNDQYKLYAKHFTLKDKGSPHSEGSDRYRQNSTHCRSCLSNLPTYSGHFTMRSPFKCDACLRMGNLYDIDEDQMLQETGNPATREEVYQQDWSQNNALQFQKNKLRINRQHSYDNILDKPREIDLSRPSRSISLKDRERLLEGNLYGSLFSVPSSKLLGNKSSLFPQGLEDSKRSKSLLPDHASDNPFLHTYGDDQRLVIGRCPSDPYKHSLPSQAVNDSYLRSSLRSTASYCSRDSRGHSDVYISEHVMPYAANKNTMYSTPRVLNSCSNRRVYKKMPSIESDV
Assay: Agonist activity at rat NR1/NR2A receptor expressed in BHK21 cells assessed as change in intracellular calcium levels by FLIPR assay
Format: functional, cell-based, BHK-21
measured-property: pEC50
Field pEC50 (float): negative decimal logarithm of the concentration in molar.

For NC(Cc1nonc1O)C(=O)O (single isomer, unassigned; (+)) the molecule record lists pEC50 as 4.33

###

Below is a list of entries, each paired with its recorded IC50 value.
Assay: Displacement of [3H]AMPA from AMPA receptor in Sprague-Dawley rat brain membranes
Type: cell membranes, Membrane

compound	IC50
NC(Cc1nonc1O)C(=O)O (racemic)	170 nM
NC(CCCc1nonc1O)C(=O)O (stereo in doubt; (+)-18)	42000 nM

Proceeding to the next compound to report its IC50.
The recorded IC50 for entry Cc1onc(O)c1CC(N)C(=O)O (racemic) [(R,S)-AMPA] equals 39 nM

###

Target: Glutamate receptor ionotropic, kainate 1 (Rattus norvegicus, UniProt P22756)
Sequence (P22756 whole entry): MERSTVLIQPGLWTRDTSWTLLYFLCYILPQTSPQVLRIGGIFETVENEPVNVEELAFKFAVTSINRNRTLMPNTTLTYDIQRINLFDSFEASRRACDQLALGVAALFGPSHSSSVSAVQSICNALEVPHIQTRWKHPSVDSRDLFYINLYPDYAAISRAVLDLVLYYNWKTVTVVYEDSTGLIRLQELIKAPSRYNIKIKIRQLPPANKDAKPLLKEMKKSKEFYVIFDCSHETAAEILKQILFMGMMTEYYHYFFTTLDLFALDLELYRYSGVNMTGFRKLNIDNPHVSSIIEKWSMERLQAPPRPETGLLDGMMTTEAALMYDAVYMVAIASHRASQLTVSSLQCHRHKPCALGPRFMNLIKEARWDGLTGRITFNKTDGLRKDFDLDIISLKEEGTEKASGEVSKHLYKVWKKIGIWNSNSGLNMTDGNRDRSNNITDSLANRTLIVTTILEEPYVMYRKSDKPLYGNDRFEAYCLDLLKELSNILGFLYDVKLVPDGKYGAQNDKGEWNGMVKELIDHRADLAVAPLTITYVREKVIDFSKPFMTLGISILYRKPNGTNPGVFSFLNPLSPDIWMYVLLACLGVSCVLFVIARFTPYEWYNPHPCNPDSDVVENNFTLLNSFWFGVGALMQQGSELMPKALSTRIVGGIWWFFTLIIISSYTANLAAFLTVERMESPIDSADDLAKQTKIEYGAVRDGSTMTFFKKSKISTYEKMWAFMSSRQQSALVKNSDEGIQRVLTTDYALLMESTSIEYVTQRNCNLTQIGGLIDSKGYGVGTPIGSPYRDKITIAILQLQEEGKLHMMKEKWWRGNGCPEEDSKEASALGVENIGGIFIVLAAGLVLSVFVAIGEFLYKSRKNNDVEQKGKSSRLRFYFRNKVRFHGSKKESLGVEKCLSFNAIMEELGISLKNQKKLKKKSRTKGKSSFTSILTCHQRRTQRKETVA
Assay: biochemical
Description: Displacement of [3H]SYM2081 from rat iGluR5 receptor expressed in Sf9 cells baculovirus system after 1 to 2 hrs by liquid scintillation counting
measured-property: Ki (µM)
Only the number, expressed in µM, is required.

molecule	experimental-system	units-text	Ki
NC(Cc1nonc1O)C(=O)O (single isomer, unassigned; (+))	Glutamate receptor ionotropic, kainate 1 (Rattus norvegicus, UniProt P22756)	µM	8.1

Continue with the next molecule.
Given the molecule NC(Cc1nonc1O)C(=O)O (stereo in doubt; (-)-10) and test system Glutamate receptor ionotropic, kainate 1 (Rattus norvegicus, UniProt P22756), the measured Ki is 77

###

Reported IC50 values for a set of compounds
Test: Displacement of [3H]AMPA from AMPA receptor in Sprague-Dawley rat brain membranes
Format: cell membranes, Membrane
# unit: µM | format: bare number

IC50 in this record for C=C(C)[C@H]1CN[C@H](C(=O)O)[C@H]1CC(=O)O [KAINIC ACID] : 4

// recorded IC50 for NC(Cc1nsnc1O)C(=O)O (racemic) : 0.12

What the record says about NC(CCc1nonc1O)C(=O)O (racemic) : IC50 is 77

For record NC(Cc1nonc1O)C(=O)O (single isomer, unassigned; (+)) the listed IC50 is 0.11

###

Test: Displacement of [3H]AMPA from AMPA receptor in Sprague-Dawley rat brain membranes
Format: cell membranes, Membrane
Recorded pIC50, one value per entry.
Just the number, please.

Use the examples below as a reference point.
compound	reported-value
NC(CCc1nonc1O)C(=O)O (racemic)	4.12
NC(Cc1nonc1O)C(=O)O (racemic)	6.76
NC(Cc1nonc1O)C(=O)O (single isomer, unassigned; (+))	6.95
NC(CCCc1nonc1O)C(=O)O (stereo in doubt; (+)-18)	4.37
NC(CCc1nonc1O)C(=O)O (stereo in doubt; (+)-15)	4.37

Per the record, NC(CCCc1nonc1O)C(=O)O (racemic) has pIC50 of 4.22

###

IC50: recorded values
Assay: Displacement of [3H]AMPA from AMPA receptor in Sprague-Dawley rat brain membranes
Format: cell membranes, Membrane
// note: answer is a bare numeric in µM

compound	IC50 [µM]
NC(CCc1nonc1O)C(=O)O (stereo in doubt; (+)-15)	42
NC(Cc1nonc1O)C(=O)O (stereo in doubt; (-)-10)	0.76

Next, consider the following compound.
Form field IC50, entry NC(CCCc1nonc1O)C(=O)O (racemic) : 61

These data points were gathered from ChEMBL document CHEMBL1157748.
